# self-cleavage per record follows
B1: Hairpin Ribozyme (parent)
chain: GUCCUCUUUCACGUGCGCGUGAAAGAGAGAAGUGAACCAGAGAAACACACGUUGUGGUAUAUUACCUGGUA

- Variants of: B1
- MEASUREMENT DESCRIPTION: self-cleavage, relative activity (ratio to wild type); higher = more cleavage; co-transcriptional
// return a plain number; no unit text

Consider the following illustrative entries.
{"MACROMOLECULE SEQUENCE": "GUCCUCUUUCACGUGCGCGUCAAAGAGAGAAGUGAACCAGAGAAACACACGUUGUGGUAUAUUACCGGGUA [G21C U67G]", "self-cleavage": 0.246}
{"MACROMOLECULE SEQUENCE": "GUCCUCUUUCACGUGCGCGUGAAAGAGAGAAGUGAACCAGAGAAACACAGGUUGGGGUAUAUUACCUGGUA [C50G U55G]", "self-cleavage": 0.368}
{"MACROMOLECULE SEQUENCE": "GUCCUCUUUCACGUGCGCGUGAAAGAGAGAAUUGAACCAGAGAAACACACGUUGUGGUAAAUUACCUGGUA [G32U U60A]", "self-cleavage": 0.17}

Exam item: Which value of self-cleavage has been reported for GUCCUCUUUCGCGUGCGCCUGAAAGAGAGAAGUGAACCAGAGAAACACACGUUGUGGUAUAUUACCUGGUA [A11G G19C] in the records?
Marked response: 0.784

Exam item: Continue with GUCUUCUUUCACGUGCGCGUGAAAGAGAGAAGUGAACCAGAGAAGCACACGUUGUGGUAUAUUACCUGGUA [C4U A45G]
Marked response: 0.199

Exam item: How about GUCCUCUUUCACGUGCGCAUGAAAGAGAAAAGUGAACCAGAGAAACACACGUUGUGGUAUAUUACCUGGUA [G19A G29A] ?
Marked response: 0.173

Exam item: Same for GUCCUCUUCCACGUGCGCGUGAAAGAGAGAAGUGAACCAUAGAAACACACGUUGUGGUAUAUUACCUGGUA [U9C G40U]
Marked response: 0.169
